- Tested on: RAW-Dual (murine macrophage reporter line)
- ASSAY PROCEDURE: NF-kB reporter (SEAP) activity fold change vs agonist alone; higher = enhanced NF-kB activity
- TEST PARAMETERS: modulator concentration 10 µM; agonist: LPS 0.1 ug/mL
Threshold rule: NF-kB reporter greater than or equal to 1 is satisfied; below that, not satisfied.

Would you please look over these solved cases?
O=C(NCCN1CCN(c2ccccc2)CC1)c1ccc(F)cc1
satisfied
COc1ccc(CN2CCNCC2)c(OC)c1OC.Cl.Cl
satisfied
COc1cc2c(c(OC)c1OC)-c1ccc(OC)c(=O)cc1C(NC(C)=O)CC2 (stereo unspecified)
satisfied
O=c1cc(CCl)occ1O
not satisfied
CN1C(=O)COc2c(C(=O)NC3CN4CCC3CC4)cc(Cl)cc21.Cl (stereo unspecified)
not satisfied
CC(=O)C1CCC2C3CCC4CC(O)CCC4(C)C3CCC12C (stereo unspecified)
satisfied

Say whether NC(=O)Cn1c(Cc2ccccc2Cl)nc2ccccc21 shows NF-kB reporter of 1 or more.
not satisfied

Say whether Cc1ccccc1C(=O)Nc1cc(Cl)c([N+](=O)[O-])cc1Cl shows NF-kB reporter of 1 or more.
not satisfied

Say whether COc1cc(C2c3cc4c(c(O)c3CC3COC(=O)C32)OCO4)cc(OC)c1OC (stereo unspecified) shows NF-kB reporter of 1 or more.
satisfied

----------
- System: RAW-Dual (murine macrophage reporter line)
- ASSAY PROCEDURE: NF-kB reporter (SEAP) activity fold change vs agonist alone; higher = enhanced NF-kB activity
- TEST PARAMETERS: modulator concentration 10 µM; agonist: CpG ODN 1826 0.5 ug/mL
Examples of compounds with documented NF-kB reporter follow.
Reply briefly: the number, and no unit.

# annotated cases, reported NF-kB reporter shown
Cl.Clc1ccc(C(OCCN2CCCCC2)c2ccccc2)cc1 (stereo unspecified)
0.656
CN1C(=O)COc2c(C(=O)NC3CN4CCC3CC4)cc(Cl)cc21.Cl (stereo unspecified)
0.661
CCN(CC)CCOC(=O)C(O)(c1ccccc1)c1ccccc1.Cl
1.16
NC(=O)CN1CC(O)CC1=O (stereo unspecified)
1.04
CC(=O)Nc1ccc(C(=O)NCC#CCN(C)C)cc1
0.899

NF-kB reporter reading for CN1C2CCC1CC(OC(=O)[C@H](CO)c1ccccc1)C2 (stereo partly specified) : 1.05

NF-kB reporter reading for CCNc1nc(Cl)nc(NC(C)C)n1 : 1.25

----------
- Test system: RAW-Dual (murine macrophage reporter line)
- ASSAY PROCEDURE: NF-kB reporter (SEAP) activity fold change vs agonist alone; higher = enhanced NF-kB activity
- TEST PARAMETERS: modulator concentration 10 µM; agonist: MPLA […]
REPORTED METRIC: NF-kB reporter
Reply briefly: the number, and no unit.

# annotated cases, reported NF-kB reporter shown
CC(C(O)c1ccccc1)N(C)C (stereo unspecified)
0.955
Cc1ccc(-c2nn(-c3ccccc3)cc2C=C2C(=O)NC(=S)NC2=O)o1
0.898
COc1ccc(C(CN(C)C)C2(O)CCCCC2)cc1 (stereo unspecified) [Prestw-1170]
0.956

NF-kB reporter reading for CCOC(=O)c1ccccc1-c1ccc(C=C2C(=O)NC(=O)N(c3cccc(C)c3)C2=O)o1 : 0.881

NF-kB reporter reading for CC12CCC3C(CCC4CC(O)CCC43C)C1CCC2=O (stereo unspecified) : 0.98

NF-kB reporter reading for O=C(O)CC[N+](=O)[O-] : 0.974

Cited source: the supplement of paper PMC10646978
